# Tested on: ACHN renal
# assay-protocol: NCI-60 one-dose screen, 48 h (100 = growth as untreated, 0 = no growth, -100 = all killed)
# recorded-conditions: 10 µM unless noted
The panel holds about 83,000 compounds, 20% with a hit somewhere; the sample as a whole holds those more often.
Each entry below lists one item and its recorded growth value.
Quick reminder: number only, in %, skip the unit.

Record excerpt, results attached:
For the record COc1ccc(C2CC(c3ccccc3)=NN2c2nc(C)c(C(C)=O)s2)cc1 (stereo not given) , what value of growth is listed for ACHN renal? 95.5

Moving on to the next compound: COc1ccc(-c2c(N)n[nH]c2-c2ccccc2O)cc1OC 102

Next: Nc1ccc(-c2cc3c(Nc4ccc(OCc5cccc(F)c5)c(Cl)c4)ncnc3s2)cc1 29.6

Same question for O=C(CC12CC3CC(CC(C3)C1)C2)NCCOCCOCCNC(=O)c1cc2c(o1)C(=O)c1ccccc1C2=O please. -74

Further cases:
Kindly state the measured growth obtained for c1ccc2c(c1)ncn2-c1nc2ccccc2n2c1nc1ccccc12 with ACHN renal. 63.1

* * *

# System: SF-539 CNS
# assay-protocol: NCI-60 one-dose screen, 48 h (100 = growth as untreated, 0 = no growth, -100 = all killed)
# recorded-conditions: 10 µM unless noted
This is part of a sample that, as a whole, favours compounds with a hit. Of some 83,000 tested, about 20% had one in any assay.
measured-endpoint: growth (%)
Express it in %; write the number only.

As a guide, the following entries are already answered.
# growth lookup, item O=C1Nc2ccccc2SC1c1ccccc1Cl (stereo not given) 109

Can you handle Cc1ccc2c(n1)C(=O)C(Oc1ccc(F)cc1)=CC2=O next? 95.9

***
# lookup: growth of Oc1ccccc1-c1nc2ccccn2c1NCCN1CCOCC1 97.2

Request: C=C1C(=O)O[C@H]2[C@H]1CC/C(Cn1cc(CNCCc3c[nH]c4ccc(Cl)cc34)nn1)=C\CC[C@@]1(C)O[C@@H]21 53.6

Subsequent entry: Cc1cc(C(c2ccccc2)c2ccccc2)ccc1NS(=O)(=O)c1ccccc1 98.4

* * *

# Tested on: UO-31 renal
# assay-protocol: NCI-60 one-dose screen, 48 h (100 = growth as untreated, 0 = no growth, -100 = all killed)
# recorded-conditions: 10 µM unless noted
About 83,000 compounds went through this panel and 20% of them were active in at least one assay; those are over-represented in the sample as a whole.
Returns one of yes or no; yes when growth is >= 60%.

Here's what some known entries look like.
Form field: growth at least 60%? Entry: CCOC(=O)c1sc(-c2ccc(OS(=O)(=O)c3ccc(C(C)(C)C)cc3)c(C=O)c2)nc1C no

Same question, C(=C\c1nc2ccccc2[nH]1)/c1nc2ccccc2[nH]1 this time yes

Moving on to the next molecule: COc1cc2c(=O)n(CCCn3ccnc3)c3c4cc5c(cc4ccc3c2cc1OC)OCO5 no

Item: CCNCCNc1cc(-c2ccc(C(=O)OC)cc2)c(C#N)c2nc3ccccc3n12 no

Query Nc1ccc(CCCCc2ccccc2)c(Cl)c1 next yes

Turning now to a further record.
Does growth meet or surpass 60% for CN1C[C@@H](c2ccc(Cl)cc2)[C@]2(NC(=S)N(c3ccc(F)c(Cl)c3)C2=O)[C@@]12C(=O)NC1C=CC(Cl)=C[C@H]12 (some centres undefined) ? no
